# experimental system: human glucagon receptor (GCGR) (Homo sapiens (Human), UniProt P47871)
# Sequence (P47871 26-477): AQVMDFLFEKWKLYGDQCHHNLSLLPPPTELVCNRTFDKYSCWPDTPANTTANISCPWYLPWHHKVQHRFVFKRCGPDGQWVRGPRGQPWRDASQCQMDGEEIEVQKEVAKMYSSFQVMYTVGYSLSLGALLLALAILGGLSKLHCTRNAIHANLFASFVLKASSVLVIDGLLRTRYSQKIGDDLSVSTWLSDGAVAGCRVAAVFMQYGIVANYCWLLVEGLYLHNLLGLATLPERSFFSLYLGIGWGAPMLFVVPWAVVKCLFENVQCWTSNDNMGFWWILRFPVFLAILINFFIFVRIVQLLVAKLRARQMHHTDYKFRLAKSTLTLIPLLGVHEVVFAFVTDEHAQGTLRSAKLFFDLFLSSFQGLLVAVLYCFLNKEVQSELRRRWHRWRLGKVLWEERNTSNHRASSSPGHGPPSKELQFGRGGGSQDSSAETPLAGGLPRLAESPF
# procedure details: Inhibition of 125I-glucagon binding to membranes from HEK293 cells expressing the human glucagon receptor
# protocol conditions: membranes of hGluc-1 HEK cells, 125I-glucagon 0.3 nM, 2 hours room temperature; IC50 converted to Ki; average if tested more than once
pKi: −log10 of the molar value.
property measured: pKi

Here's what some known entries look like.
structure as smiles	pKi
O=C(O)CCNC(=O)c1ccc(-c2cc(Cl)ccc2CNc2ccc(-c3ccc(F)cc3F)c(F)c2)cn1	7.22
O=C(O)CCNC(=O)c1ccc(-c2cc(Cl)ccc2CNc2ccc(-c3ccc(C(F)(F)F)cc3)c(F)c2)cn1	7.47
O=C(O)CCNC(=O)c1ccc(-c2cc(Cl)ccc2CNc2ccc(-c3ccc(Cl)cc3)c(F)c2)cn1	7.48

a = O=C(O)CCNC(=O)c1ccc(-c2cc(C(F)(F)F)ccc2CNc2ccc(-c3cccc(C(F)(F)F)c3Cl)c(Cl)c2)cn1
b = O=C(O)CCNC(=O)c1ccc(-c2cc(Cl)ccc2CNc2ccc(-c3ccc(Cl)cc3)cc2)cn1
c = O=C(O)CCNC(=O)c1ccc(-c2cc(Cl)ccc2CNc2ccc(-c3ccc(Cl)c(Cl)c3)c(C(F)(F)F)c2)cn1
d = Cc1ccc(-c2ccc(NCc3cc(F)c(F)cc3-c3ccc(C(=O)NCCC(=O)O)nc3)cc2C#N)c(F)c1
Task: Put the entries in order of pKi, starting with the largest number. Submit the labels in the order that the ranking request calls for.
Result: a, b, d, c
(a: 7.65, b: 7.40, d: 7.12, c: 6.81)

A = O=C(O)CCNC(=O)c1ccc(-c2cc(Cl)ccc2C(=O)Nc2ccc(-c3ccc(Cl)cc3)cc2)cn1
B = Cc1cc(Cl)ccc1-c1ccc(NCc2cc(Cl)c(C(F)(F)F)cc2-c2ccc(C(=O)NCCC(=O)O)nc2)cc1
Task: Hi team, can someone confirm which has the larger pKi: A or B ? Thanks. Selection: enter the item's label.
Result: B
(B: 7.62, A: 7.36)

A = O=C(O)CCNC(=O)c1ccc(-c2cc(C(F)(F)F)ccc2CNc2ccc(-c3ccc(Cl)c(C(F)(F)F)c3)c(Cl)c2)cn1
B = O=C(O)CCNC(=O)c1ccc(-c2cc(Cl)ccc2CNc2ccc(-c3ccc(Cl)c(F)c3)c(F)c2)cn1
Task: I need your help: which of the pair A , B has higher pKi? State the label of the item chosen.
Result: A
